These data points were gathered from a melting point compilation (Tetko et al.; mined from patent text by program, amines drawn as free bases though some values may be those of a salt).

For each of the compounds below, state its melting point.

Entry COc1ccc2c(C(=S)N(C)CC(=O)O)cccc2c1C(F)(F)C(F)(F)F : reported melting point = ?
164 to 165 °C

Find the recorded melting point belonging to O=C1CCC(=O)N1c1ccc(N2CCN(c3ccc(OCC(O)(Cn4cncn4)c4ccc(Cl)cc4Cl)cc3)CC2)cc1 (stereo not given) and report it.
212 to 216 °C

Suppose we examine the compound CCOC(=O)c1cn(C)c2cnc3cc(F)c(N4CCN(C(=O)CC(F)(F)F)C(c5ccc(OCc6ccccc6)c(OC)c5)C4)cc3c2c1=O (stereo not given) ; what melting point value has been reported?
154 °C

Tell me the measured melting point of CCOP(=O)(/C=C/c1cn(-c2ccccc2)nc1OCc1ccc(OCc2cn(-c3ccccn3)nc2C)c(OC)c1)OCC , please.
103 to 104 °C

I am curious: what melting point value has been reported for CCC(=O)Nc1ccc(CN2C(=O)[C@H]3CCC[C@H]3N(C(=O)CN3C(=O)c4ccccc4C3=O)c3ccccc32)cc1 (relative stereo) ?
286 °C

State the recorded melting point for this entry: Cc1ccc(C2CCN(C(=O)CCC(=O)c3ccc4c(c3)CN(C)CC4)CC2)cc1
97 to 99 °C

Give the measured melting point of NC(=O)N1CCCN(NC(=O)c2cc(=O)c(O)c[nH]2)C1=O .
215 to 220 °C

Any idea what its melting point is? The compound is CN(C)C(=O)c1ccc(C=CC(=O)c2cccc(OCc3ccc4ccc(Cl)cc4n3)c2)o1
141 to 142 °C

Record request: melting point value, item CCCn1c(-c2ccc(O)cc2)cnc1SC
157 °C

Consider the compound Nc1cccc(-c2cccc3c2/C(=C/c2ccc[nH]2)C(=O)N3)c1 and give its measured melting point.
92 to 94 °C

Name the recorded melting point for CCCCc1cc2ccc(C(=O)O)cc2o1 .
102 to 104 °C

Which melting point value belongs to Nc1nc2ccc(OCC(F)(F)C(F)(F)F)cc2s1 ?
147 °C

Need melting point of Cc1c(C(F)(F)F)cnc(O)c1Cl , thanks.
204 to 205 °C

Would you kindly share the measured melting point for Cc1cc(C)cc(Sc2cc(=O)[nH]c(C)c2CO)c1 ?
268 to 270 °C

What does the data say about its melting point? Entry: Cc1c(CO)c2cnnc(OCc3ccccc3)c2n1Cc1ccccc1
130 to 132 °C

I'd like to know its melting point. The compound in question is CC(=O)NC[C@H]1CN(c2ccc(C3CCNCC3)cc2)C(=O)O1
146 to 148 °C

melting point lookup needed for CC(C)c1ccc(/C=C/c2cc(/C=C/c3ccc4cc[nH]c4c3)n[nH]2)cc1 , thanks.
208 to 212 °C

I have this compound here, O=C(O)c1nn(-c2ccc(Cl)cc2Cl)c2c1SCc1cc(Cl)ccc1-2 , and I need its recorded melting point.
262 °C

Using the record for O=C(O)Cc1ccc2c(c1)sc1cc(Cl)ccc12 , report its melting point.
198 to 200 °C

Which melting point is listed for CON1C=C2N=Nc3cc(-c4ccccc4)cnc3N2C1 ?
225 to 227 °C

----------
endpoint.name: melting point

Recorded melting point of OC1(c2ccc(C3OCCO3)cc2)CCCCC1 , please.
95 to 97 °C

# melting point lookup, item CC1=C(C(=O)O)C(c2cccc([N+](=O)[O-])c2)C(C(=O)OCCC#N)=C(C)N1 (centres undefined)
131 to 132 °C

Name the recorded melting point for CCCCc1cn(CCCC)c(=O)n1Cc1ccc(-c2ncccc2-c2nnn[nH]2)cc1 .
178 to 180 °C

Give the measured melting point of COc1ccc(-c2c(Cl)c(CNS(=O)(=O)c3ccccc3)nc3sc4c(c23)CCN(Cc2ccccc2)C4)cc1OC .
153 to 154 °C

Given CCc1cn(C2CC(O)C(CNC(=O)C(CC)c3ccccc3)O2)c(=O)[nH]c1=O (centres undefined) , state its recorded melting point.
235 to 236 °C

Quick one: melting point for CCc1c(OC)nc(OC)nc1C(=O)c1cc(Cl)cc(Cl)c1 ?
118 to 119 °C

Reported melting point, molecule COc1cc(C(=O)CS(=O)(=O)c2ccccc2)ccc1Cc1cn(C(C)C(=O)N(C)C)c2ccc(C(=O)NCC3CCCC3)cc12 (centres undefined) : ____
146 to 147 °C

Can you share its melting point? I mean this molecule: CCSCCOC(=O)C(=O)Nc1nc(-c2ccccc2)cs1
148 to 149 °C

Return reported melting point; argument: COc1ccc(-c2nc(C#N)cn2-c2ccc(OC)cc2)cc1
132 to 134 °C

I'd like to know its melting point. The molecule in question is C#Cc1cc(Nc2ncnc3cnc(NC(=O)/C=C/CN(C)C)cc23)ccc1F
152 to 155 °C

Give the measured melting point of CCOc1ccccc1-c1cc(OC)c(C(=O)N2Cc3cccn3Cc3ccccc32)cc1Cl .
213 to 215 °C

# lookup: melting point of Cc1ccc(Cl)c2c(C)c(C(=O)O)[nH]c12
211 to 213 °C

What melting point value was documented for this molecule, O=c1cc(C2CCCCC2)oc2ccc(OCCCCCN3CCC(O)CC3)cc12 ?
85 to 86 °C

// returns reported melting point for input CC(=O)NC(CO)CCc1ccc(Sc2cccc(OCc3ccccc3)c2)cc1Cl (centres undefined)
78 to 81 °C

Value lookup for melting point; key = CCCc1nc(C(C)(C)O)c(C(=O)OC2OC(=O)c3ccccc32)n1Cc1ccc(-c2ccccc2C(=O)O)cc1 (centres undefined)
142 to 144 °C

Using the record for CNC(=O)N1CCC(=C2c3ccc(Cl)cc3CCc3cccnc32)CC1 , report its melting point.
194 to 196 °C

Reported melting point, molecule NS(=O)(=O)OCC1COc2cc(Cl)c(Cl)cc2O1 (centres undefined) : ____
109 to 111 °C

# get_value(readout='melting point', item= Cc1ccc2c(c1)Sc1ccc(Cl)cc1CC2N1CCN(CCN2CCOC2=O)CC1 (centres undefined) )
161 to 163 °C

Would you mind telling me what melting point value was observed for CCCCN(C)CCc1ccc(Nc2ncc3c(n2)-c2ccccc2C(c2cccc(Br)c2)C3)cc1 (centres undefined) ?
66 to 68 °C
